system: iBMDM (immortalised mouse bone-marrow-derived macrophages), LPS-stimulated; assay: mitochondrial superoxide (MitoSOX fluorescence) fold increase over unstimulated control; higher = more LPS-induced mitochondrial ROS (less inhibition); settings: inhibitor concentration: 500 nM; LPS: 100 ng/ml; time after LPS: 4 h
metric: mitochondrial superoxide
The answer should be a number; do not append a unit.

[ask] Retrieve mitochondrial superoxide measured for Cc1cc(O)c2c(c1)C(=O)c1cccc(O)c1C2=O and print it.
[reply] 1.48

[ask] Retrieve mitochondrial superoxide measured for Cc1cc(Nc2ncc(Cl)c(Nc3ccccc3S(=O)(=O)C(C)C)n2)c(OC(C)C)cc1C1CCNCC1 and print it.
[reply] 1.39

[ask] Respond only with mitochondrial superoxide recorded for O=C(/C=C/c1ccc(O)c(O)c1)c1ccc(O)cc1O
[reply] 1.85

[ask] Please supply the value of reported mitochondrial superoxide for the item CCCS(=O)(=O)Nc1ccc(F)c(C(=O)c2c[nH]c3ncc(-c4ccc(Cl)cc4)cc23)c1F
[reply] 1.17

----------
system: iBMDM (immortalised mouse bone-marrow-derived macrophages), LPS-stimulated; test: mitochondrial superoxide (MitoSOX fluorescence) fold increase over unstimulated control; higher = more LPS-induced mitochondrial ROS (less inhibition); conditions: inhibitor concentration: 500 nM; LPS: 100 ng/ml; time after LPS: 4 h
Would you kindly list mitochondrial superoxide for each of these compounds?
Could you keep your reply to the number by itself?

[ask] Report mitochondrial superoxide under test system iBMDM (immortalised mouse bone-marrow-derived macrophages), LPS-stimulated for O=C(c1ccc(/C=C/c2n[nH]c3ccccc23)cc1)N1CCNCC1 .
[reply] 1.33

[ask] State the measured mitochondrial superoxide (iBMDM (immortalised mouse bone-marrow-derived macrophages), LPS-stimulated) of Cc1cc(CN2CCN(c3c(Br)cnc4nc(-c5ccc(N6CCN(C)CC6)cc5)[nH]c34)CC2)no1
[reply] 1.68

[ask] Please report mitochondrial superoxide with iBMDM (immortalised mouse bone-marrow-derived macrophages), LPS-stimulated for item O=C(c1cccc(Cl)c1F)N1CCN(Cc2cccc(Nc3nccs3)n2)CC1 .
[reply] 1.37

[ask] Report mitochondrial superoxide from iBMDM (immortalised mouse bone-marrow-derived macrophages), LPS-stimulated testing of Nc1nc(N)c(N=O)c(OCC2CCCCC2)n1
[reply] 1.37

[ask] Give measured mitochondrial superoxide for CC(C)(O)CC(=O)NCCn1ccc2ncnc(Nc3ccc(Oc4cccc(C(F)(F)F)c4)c(Cl)c3)c21 (iBMDM (immortalised mouse bone-marrow-derived macrophages), LPS-stimulated).
[reply] 1.62

----------
test system: iBMDM (immortalised mouse bone-marrow-derived macrophages), LPS-stimulated; assay: mitochondrial superoxide (MitoSOX fluorescence) fold increase over unstimulated control; higher = more LPS-induced mitochondrial ROS (less inhibition); conditions: inhibitor concentration: 500 nM; LPS: 100 ng/ml; time after LPS: 1 h
Counter-ions that a name gives are not always drawn.
metric: mitochondrial superoxide
Simply state the number, no unit and no words.

[ask] Consider the compound CCOc1cc2ncc(C#N)c(Nc3ccc(F)c(Cl)c3)c2cc1NC(=O)/C=C/CN(C)C [Pelitinib (EKB-569)] and give its recorded mitochondrial superoxide.
[reply] 1.2

[ask] Could you please provide reported mitochondrial superoxide for COc1cc2c(Nc3ccc(NC(=O)c4ccccc4)cc3)ncnc2cc1OCCCN1CCOCC1 ? Thanks!
[reply] 1.34

[ask] For the compound Cc1ccc(Nc2nccc(N(C)c3ccc4c(C)n(C)nc4c3)n2)cc1S(N)(=O)=O , give its reported mitochondrial superoxide.
[reply] 1.46

[ask] Read the entry CNC(=O)c1c(F)cccc1Nc1nc(Nc2cc3c(cc2OC)CCN3C(=O)CN(C)C)nc2[nH]ccc12 and write its reported mitochondrial superoxide.
[reply] 1.28

[ask] Please look at this compound and report its mitochondrial superoxide: O=C1NC(=O)/C(=C/c2cccc(C(F)(F)F)c2)S1
[reply] 1.27

[ask] Tell me measured mitochondrial superoxide for COc1ccc2cc(-c3nc(-c4ccc([S+](C)[O-])cc4)[nH]c3-c3ccncc3)ccc2c1 (configuration not stated) please.
[reply] 0.981

[ask] For O=C(Nc1ccc(-c2ccnc(Nc3ccc(N4CCOCC4)cc3)n2)cc1)C1CCCN1 (configuration not stated) , write its mitochondrial superoxide.
[reply] 1.21

[ask] # return recorded mitochondrial superoxide for entry CCN1CCN(c2ccc(Nc3cc(N(C)C(=O)Nc4c(Cl)c(OC)cc(OC)c4Cl)ncn3)cc2)CC1
[reply] 1.2

[ask] Give recorded mitochondrial superoxide. CCN1CCN(Cc2ccc(Nc3ncc(F)c(-c4cc(F)c5nc(C)n(C(C)C)c5c4)n3)nc2)CC1
[reply] 1.13

[ask] Please report mitochondrial superoxide for the following compound: CN1CCN(CCOc2cc(OC3CCOCC3)c3c(Nc4c(Cl)ccc5c4OCO5)ncnc3c2)CC1
[reply] 1.52

[ask] // fetch mitochondrial superoxide given entry O=P(O)(O)C(O)(Cn1ccnc1)P(=O)(O)O
[reply] 1.27

[ask] Read off the recorded mitochondrial superoxide for CN1CC[C@H](c2c(O)cc(O)c3c(=O)cc(-c4ccccc4Cl)oc23)[C@H](O)C1 [Flavopiridol HCl]
[reply] 1.31

[ask] Respond only with mitochondrial superoxide recorded for COc1ccc(S(=O)(=O)N(C(C)=O)c2ccccc2/C=C/c2cc[n+]([O-])cc2)cc1
[reply] 1.15

[ask] Indicate the recorded mitochondrial superoxide value for this compound: Cc1csc(-c2nnc(Nc3ccc(Oc4ncccc4-c4ccnc(N)n4)cc3)c3ccccc23)c1
[reply] 1.35

[ask] # return recorded mitochondrial superoxide for input CO[C@H]1C[C@@H]2CC[C@@H](C)[C@@](O)(O2)C(=O)C(=O)N2CCCC[C@H]2C(=O)O[C@H]([C@H](C)C[C@@H]2CC[C@@H](OP(C)(C)=O)[C@H](OC)C2)CC(=O)[C@H](C)/C=C(\C)[C@@H](O)[C@@H](OC)C(=O)[C@H](C)C[C@H](C)/C=C/C=C/C=C/1C
[reply] 1.55

[ask] Give recorded mitochondrial superoxide. O=C(Nc1cccc(Cl)c1)Nc1ncc(CCNc2ncnc3ccsc23)s1 [SNS-314 Mesylate]
[reply] 1.32

[ask] Recall and state the measured mitochondrial superoxide for O=C(NCc1ccccc1)c1csc(Nc2ccncn2)n1 .
[reply] 1.11

[ask] Look up and report measured mitochondrial superoxide for this entry: Fc1cc(-c2cccc3ncc(-c4cnn(C5CCNCC5)c4)nc23)cc(F)c1CN1CCOCC1
[reply] 1.15

[ask] Give mitochondrial superoxide for O=C1NC(=O)C(=Cc2ccc(-c3ccc(F)cc3)o2)S1 (stereo in doubt)
[reply] 1.28

[ask] Answer with the recorded mitochondrial superoxide for the compound listed here: NCC(=O)Nc1ccc(-n2nc(C(F)(F)F)cc2-c2ccc3c(ccc4ccccc43)c2)cc1
[reply] 1.41

[ask] Please list mitochondrial superoxide recorded for the compound NC1(C(=O)N[C@@H](CCO)c2ccc(Cl)cc2)CCN(c2ncnc3[nH]ccc23)CC1
[reply] 1.38

[ask] Find the measured mitochondrial superoxide of COc1cc2c(Oc3ccc4[nH]c(C)cc4c3F)ncnc2cc1OCCCN1CCCC1 and report it.
[reply] 1.65

[ask] Provide measured mitochondrial superoxide value, entry: CC(=O)Nc1cccc(-n2c(=O)n(C3CC3)c(=O)c3c(Nc4ccc(I)cc4F)n(C)c(=O)c(C)c32)c1
[reply] 1.34

[ask] # return recorded mitochondrial superoxide for entry COc1cc2ncnc(Nc3ccc(F)c(Cl)c3)c2cc1NC(=O)/C=C/CN1CCCCC1
[reply] 1.22

[ask] Please supply the value of reported mitochondrial superoxide for the item COc1cc2ncnc(Nc3ccc(F)c(Cl)c3)c2cc1OCCCN1CCOCC1 [Gefitinib (ZD1839)]
[reply] 1.6

[ask] Determine its reported mitochondrial superoxide: COc1cc(CCc2cc(NC(=O)c3ccc(N4CC(C)NC(C)C4)cc3)n[nH]2)cc(OC)c1 (configuration not stated)
[reply] 1.26

[ask] Supply mitochondrial superoxide value. Item: Cn1cnc2c(F)c(Nc3ccc(Br)cc3F)c(C(=O)NOCCO)cc21
[reply] 1.13
